Source listed as patent US20240287154A1.

Molecular target: human MC4R (Homo sapiens, UniProt P32245)
Sequence (P32245 whole entry): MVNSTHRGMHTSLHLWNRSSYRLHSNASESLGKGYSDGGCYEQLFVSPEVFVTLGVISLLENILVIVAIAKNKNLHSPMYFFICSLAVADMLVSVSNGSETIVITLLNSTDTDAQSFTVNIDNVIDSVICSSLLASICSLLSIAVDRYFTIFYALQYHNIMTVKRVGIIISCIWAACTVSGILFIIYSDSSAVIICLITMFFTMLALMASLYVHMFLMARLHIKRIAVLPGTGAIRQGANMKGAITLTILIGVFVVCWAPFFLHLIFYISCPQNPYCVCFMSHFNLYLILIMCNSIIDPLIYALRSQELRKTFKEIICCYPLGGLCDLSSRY
Assay: Intracellular cAMP levels in live cells, MC3R selectivity relative to MC4R
Format: cell-based
Conditions: cAMP assays in human MC3R and human MC4R stable cell lines
Protocol: The stable cell lines were grown and maintained in selection media consisting of Dulbecco's modified Eagle media (DMEM) with 4.5 g/l D-glucose, and 4 mM L-glutamine (Thermo Fisher Scientific, Waltham, MA), supplemented with 10% fetal bovine serum, 100 units/ml penicillin, 100 μg/ml streptomycin, 2.5 μg/ml amphotericin B, 200 μg/ml hygromycin B (for positive selection of the GScAMP22f luciferase reporter), and Geneticin™ (G418) 700 μg/ml (for MC3R or MC4R selection). […]
Non-standard residues stand in square brackets, D forms with d. Residues, ends and D or L forms follow the SMILES beside them. Phe(4-F) = N[C@@H](Cc1ccc(F)cc1)C(=O)O; Nle = CCCC[C@H](N)C(=O)O

| compound | studySystem | MC3R selectivity (relative to MC4R) |
| --- | --- | --- |
| CCCC[C@H](NC(=O)[C@@H](NC(=O)CNC(=O)COCCOCCNC(=O)CNC(=O)CCc1ccc(I)cc1)C(C)C)C(=O)N[C@H](C)C(=O)N[C@@H](Cc1c[nH]cn1)C(=O)N[C@@H](Cc1ccccc1)C(=O)N[C@@H](CCCNC(=N)N)C(=O)N[C@H](Cc1c[nH]c2ccccc12)C(=O)N[C@@H](CC(=O)O)C(=O)N[C@@H](CCCNC(=N)N)C(=O)N[C@@H](Cc1ccccc1)C(=O)NCC(=O)O | human MC4R (Homo sapiens, UniProt P32245) | 577 |
| CCCC[C@H](NC(C)=O)C(=O)N[C@H](C)C(=O)N[C@@H](Cc1c[nH]cn1)C(=O)N[C@@H](Cc1ccccc1)C(=O)N[C@@H](CCCNC(=N)N)C(=O)N[C@H](Cc1c[nH]c2ccccc12)C(=O)N[C@@H](CC(=O)O)C(=O)N[C@@H](C)C(=O)N[C@@H](Cc1ccccc1)C(=O)NCC(=O)O [CTX-1534] (Ac-[Nle][dA]HFR[dW]DAFG-OH) | human MC4R (Homo sapiens, UniProt P32245) | 186 |
| CCCC[C@H](NC(=O)[C@@H](NC(=O)[C@H](N)Cc1ccc(O)cc1)C(C)C)C(=O)N[C@H](C)C(=O)N[C@@H](Cc1c[nH]cn1)C(=O)N[C@@H](Cc1ccccc1)C(=O)N[C@@H](CCCNC(=N)N)C(=O)N[C@H](Cc1c[nH]c2ccccc12)C(=O)N[C@@H](CC(=O)O)C(=O)N[C@@H](CCCNC(=N)N)C(=O)N[C@@H](Cc1ccccc1)C(=O)NCC(=O)O [CTX-1125] (H-[dY]V[Nle][dA]HFR[dW]DRFG-OH) | human MC4R (Homo sapiens, UniProt P32245) | 747 |
| CCCC[C@H](NC(=O)[C@@H](NC(=O)[C@@H](N)Cc1ccc(O)cc1)C(C)C)C(=O)N[C@H](C)C(=O)N[C@@H](Cc1c[nH]cn1)C(=O)N[C@@H](Cc1ccccc1)C(=O)N[C@@H](CCCNC(=N)N)C(=O)N[C@H](Cc1c[nH]c2ccccc12)C(=O)N[C@@H](CC(=O)O)C(=O)N[C@H](CCCNC(=N)N)C(=O)N[C@@H](Cc1ccccc1)C(=O)NCC(=O)O [CTX-1126] (H-YV[Nle][dA]HFR[dW]D[dR]FG-OH) | human MC4R (Homo sapiens, UniProt P32245) | 43 |
| CCCC[C@H](NC(C)=O)C(=O)N[C@H](C)C(=O)N[C@@H](Cc1c[nH]cn1)C(=O)N[C@@H](Cc1ccccc1)C(=O)N[C@@H](CCCNC(=N)N)C(=O)N[C@H](Cc1c[nH]c2ccccc12)C(=O)N[C@H](Cc1ccccc1)C(N)=O [CTX-1542, Nle-D-Ala-His-Phe-Arg-D-Trp-D-Phe] (Ac-[Nle][dA]HFR[dW][dF]-NH2) | human MC4R (Homo sapiens, UniProt P32245) | 15 |
| CCCC[C@H](NC(=O)[C@@H](NC(=O)[C@@H](N)Cc1ccc(O)cc1)C(C)C)C(=O)NCC(=O)N[C@@H](Cc1c[nH]cn1)C(=O)N[C@H](Cc1ccccc1)C(=O)N[C@@H](CCCNC(=N)N)C(=O)N[C@H](Cc1c[nH]c2ccccc12)C(=O)N[C@@H](CC(=O)O)C(N)=O [CTX-1107, Tyr-Val-Nle-Gly-His-D-Phe-Arg-D-Trp-Asp] (H-YV[Nle]GH[dF]R[dW]D-NH2) | human MC4R (Homo sapiens, UniProt P32245) | 2.4 |
| CCCC[C@H](NC(C)=O)C(=O)N[C@H](C)C(=O)N[C@@H](Cc1c[nH]cn1)C(=O)N[C@@H](Cc1ccc(F)cc1)C(=O)N[C@@H](CCCNC(=N)N)C(=O)N[C@H](Cc1c[nH]c2ccccc12)C(=O)N[C@@H](CC(=O)O)C(=O)N[C@@H](CCCNC(=N)N)C(=O)N[C@@H](Cc1ccccc1)C(=O)NCC(=O)O [CTX-1518] (Ac-[Nle][dA]H[Phe(4-F)]R[dW]DRFG-OH) | human MC4R (Homo sapiens, UniProt P32245) | 1,559 |
| CCCC[C@H](NC(=O)[C@@H](NC(=O)[C@@H](N)Cc1ccc(O)cc1)C(C)C)C(=O)N[C@H](C)C(=O)N[C@@H](Cc1c[nH]cn1)C(=O)N[C@@H](Cc1ccccc1)C(=O)N[C@@H](CCCNC(=N)N)C(=O)N[C@H](Cc1c[nH]c2ccccc12)C(=O)N[C@@H](CC(=O)O)C(=O)N[C@@H](CCCNC(=N)N)C(=O)N[C@@H](Cc1ccccc1)C(=O)NCC(N)=O [CTX-1118] (H-YV[Nle][dA]HFR[dW]DRFG-NH2) | human MC4R (Homo sapiens, UniProt P32245) | 59 |
| CCCC[C@H](NC(C)=O)C(=O)N[C@H](C)C(=O)N[C@@H](Cc1c[nH]cn1)C(=O)N[C@@H](Cc1ccccc1)C(=O)N[C@@H](CCCNC(=N)N)C(=O)N[C@H](Cc1c[nH]c2ccccc12)C(=O)N[C@@H](CCCC)C(=O)N[C@@H](CCCNC(=N)N)C(=O)N[C@@H](Cc1ccccc1)C(=O)NCC(=O)O [CTX-1532] (Ac-[Nle][dA]HFR[dW][Nle]RFG-OH) | human MC4R (Homo sapiens, UniProt P32245) | 184 |
| CCCC[C@H](NC(C)=O)C(=O)N[C@H](C)C(=O)N[C@@H](Cc1c[nH]cn1)C(=O)N[C@@H](Cc1ccccc1)C(=O)N[C@@H](CCCNC(=N)N)C(=O)N[C@H](Cc1c[nH]c2ccccc12)C(=O)N[C@@H](C)C(=O)N[C@@H](CCCNC(=N)N)C(=O)N[C@@H](Cc1ccccc1)C(=O)NCC(=O)O [CTX-1528] (Ac-[Nle][dA]HFR[dW]ARFG-OH) | human MC4R (Homo sapiens, UniProt P32245) | 182 |
| CCCC[C@H](NC(=O)[C@@H](NC(=O)[C@@H](N)Cc1ccc(O)cc1)C(C)C)C(=O)N[C@H](C)C(=O)N[C@@H](Cc1c[nH]cn1)C(=O)N[C@H](Cc1ccccc1)C(=O)N[C@@H](CCCNC(=N)N)C(=O)N[C@H](Cc1c[nH]c2ccccc12)C(=O)N[C@@H](CC(=O)O)C(=O)N[C@@H](CCCNC(=N)N)C(=O)N[C@@H](Cc1ccccc1)C(=O)NCC(=O)O [CTX-1104] (H-YV[Nle][dA]H[dF]R[dW]DRFG-OH) | human MC4R (Homo sapiens, UniProt P32245) | 27 |

---

Molecular target: human MC4R (Homo sapiens, UniProt P32245)
Test: Intracellular cAMP levels in live cells, MC3R selectivity relative to MC4R
Type: cell-based
Conditions: cAMP assays in human MC3R and human MC4R stable cell lines
Non-standard residues stand in square brackets, D forms with d. Residues, ends and D or L forms follow the SMILES beside them. Phe(4-I) = N[C@@H](Cc1ccc(I)cc1)C(=O)O; NMeY = CN[C@@H](Cc1ccc(O)cc1)C(=O)O; Nle = CCCC[C@H](N)C(=O)O; dAbu = CC[C@@H](N)C(=O)O
measuredMetric: MC3R selectivity (relative to MC4R)

| compound | studySystem | measValue |
| --- | --- | --- |
| CCCC[C@H](NC(=O)[C@@H](NC(=O)[C@H](Cc1ccc(O)cc1)NC)C(C)C)C(=O)N[C@H](C)C(=O)N[C@@H](Cc1c[nH]cn1)C(=O)N[C@@H](Cc1ccccc1)C(=O)N[C@@H](CCCNC(=N)N)C(=O)N[C@H](Cc1c[nH]c2ccccc12)C(=O)N[C@@H](CC(=O)O)C(=O)N[C@@H](CCCNC(=N)N)C(=O)N[C@@H](Cc1ccccc1)C(=O)NCC(=O)O [CTX-1124] (H-[NMeY]V[Nle][dA]HFR[dW]DRFG-OH) | human MC4R (Homo sapiens, UniProt P32245) | 69 |
| CCCC[C@H](NC(=O)[C@@H](NC(=O)[C@@H](N)Cc1ccc(O)cc1)C(C)C)C(=O)N[C@H](C)C(=O)N[C@@H](Cc1c[nH]cn1)C(=O)N[C@@H](Cc1ccccc1)C(=O)N[C@@H](CCCNC(=N)N)C(=O)N[C@H](Cc1c[nH]c2ccccc12)C(=O)N[C@@H](CC(=O)O)C(=O)N[C@@H](CCCNC(=N)N)C(=O)N[C@@H](Cc1ccccc1)C(=O)NCC(=O)O [CTX-1103] (H-YV[Nle][dA]HFR[dW]DRFG-OH) | human MC4R (Homo sapiens, UniProt P32245) | 229 |
| CCCC[C@H](NC(=O)[C@@H](NC(=O)[C@@H](N)Cc1ccc(O)cc1)C(C)C)C(=O)N[C@H](Cc1ccccc1)C(=O)N[C@@H](Cc1c[nH]cn1)C(=O)N[C@@H](Cc1ccccc1)C(=O)N[C@@H](CCCNC(=N)N)C(=O)N[C@H](Cc1c[nH]c2ccccc12)C(=O)N[C@@H](CC(=O)O)C(N)=O [CTX-1132, Tyr-Val-Nle-D-Phe-His-Phe-Arg-D-Trp-Asp] (H-YV[Nle][dF]HFR[dW]D-NH2) | human MC4R (Homo sapiens, UniProt P32245) | 6.8 |
| CCCC[C@H](NC(C)=O)C(=O)N[C@H](CC)C(=O)N[C@@H](Cc1c[nH]cn1)C(=O)N[C@@H](Cc1ccc(I)cc1)C(=O)N[C@@H](CCCNC(=N)N)C(=O)N[C@H](Cc1c[nH]c2ccccc12)C(=O)N[C@@H](CC(=O)O)C(=O)N[C@@H](CCCNC(=N)N)C(=O)N[C@@H](Cc1ccccc1)C(=O)NCC(=O)O [CTX-1191] (Ac-[Nle][dAbu]H[Phe(4-I)]R[dW]DRFG-OH) | human MC4R (Homo sapiens, UniProt P32245) | 470 |
| CCCC[C@H](NC(C)=O)C(=O)N[C@H](C)C(=O)N[C@@H](Cc1c[nH]cn1)C(=O)N[C@@H](Cc1ccccc1)C(=O)N[C@@H](CCCNC(=N)N)C(=O)N[C@H](Cc1c[nH]c2ccccc12)C(=O)N[C@@H](CC(=O)O)C(=O)N[C@@H](CCCNC(=N)N)C(=O)N[C@@H](Cc1ccccc1)C(N)=O [CTX-1158, Nle-D-Ala-His-Phe-Arg-D-Trp-Asp-Arg-Phe] (Ac-[Nle][dA]HFR[dW]DRF-NH2) | human MC4R (Homo sapiens, UniProt P32245) | 535 |
